- target_or_test_system: N-type Ca2+ channels in IMR-32 cells (Homo sapiens, UniProt Q00975)
- Construct: host or cells: IMR-32 cells, differentiated with dibutyryl cAMP and bromodeoxyuridine
- Sequence (Q00975 whole entry): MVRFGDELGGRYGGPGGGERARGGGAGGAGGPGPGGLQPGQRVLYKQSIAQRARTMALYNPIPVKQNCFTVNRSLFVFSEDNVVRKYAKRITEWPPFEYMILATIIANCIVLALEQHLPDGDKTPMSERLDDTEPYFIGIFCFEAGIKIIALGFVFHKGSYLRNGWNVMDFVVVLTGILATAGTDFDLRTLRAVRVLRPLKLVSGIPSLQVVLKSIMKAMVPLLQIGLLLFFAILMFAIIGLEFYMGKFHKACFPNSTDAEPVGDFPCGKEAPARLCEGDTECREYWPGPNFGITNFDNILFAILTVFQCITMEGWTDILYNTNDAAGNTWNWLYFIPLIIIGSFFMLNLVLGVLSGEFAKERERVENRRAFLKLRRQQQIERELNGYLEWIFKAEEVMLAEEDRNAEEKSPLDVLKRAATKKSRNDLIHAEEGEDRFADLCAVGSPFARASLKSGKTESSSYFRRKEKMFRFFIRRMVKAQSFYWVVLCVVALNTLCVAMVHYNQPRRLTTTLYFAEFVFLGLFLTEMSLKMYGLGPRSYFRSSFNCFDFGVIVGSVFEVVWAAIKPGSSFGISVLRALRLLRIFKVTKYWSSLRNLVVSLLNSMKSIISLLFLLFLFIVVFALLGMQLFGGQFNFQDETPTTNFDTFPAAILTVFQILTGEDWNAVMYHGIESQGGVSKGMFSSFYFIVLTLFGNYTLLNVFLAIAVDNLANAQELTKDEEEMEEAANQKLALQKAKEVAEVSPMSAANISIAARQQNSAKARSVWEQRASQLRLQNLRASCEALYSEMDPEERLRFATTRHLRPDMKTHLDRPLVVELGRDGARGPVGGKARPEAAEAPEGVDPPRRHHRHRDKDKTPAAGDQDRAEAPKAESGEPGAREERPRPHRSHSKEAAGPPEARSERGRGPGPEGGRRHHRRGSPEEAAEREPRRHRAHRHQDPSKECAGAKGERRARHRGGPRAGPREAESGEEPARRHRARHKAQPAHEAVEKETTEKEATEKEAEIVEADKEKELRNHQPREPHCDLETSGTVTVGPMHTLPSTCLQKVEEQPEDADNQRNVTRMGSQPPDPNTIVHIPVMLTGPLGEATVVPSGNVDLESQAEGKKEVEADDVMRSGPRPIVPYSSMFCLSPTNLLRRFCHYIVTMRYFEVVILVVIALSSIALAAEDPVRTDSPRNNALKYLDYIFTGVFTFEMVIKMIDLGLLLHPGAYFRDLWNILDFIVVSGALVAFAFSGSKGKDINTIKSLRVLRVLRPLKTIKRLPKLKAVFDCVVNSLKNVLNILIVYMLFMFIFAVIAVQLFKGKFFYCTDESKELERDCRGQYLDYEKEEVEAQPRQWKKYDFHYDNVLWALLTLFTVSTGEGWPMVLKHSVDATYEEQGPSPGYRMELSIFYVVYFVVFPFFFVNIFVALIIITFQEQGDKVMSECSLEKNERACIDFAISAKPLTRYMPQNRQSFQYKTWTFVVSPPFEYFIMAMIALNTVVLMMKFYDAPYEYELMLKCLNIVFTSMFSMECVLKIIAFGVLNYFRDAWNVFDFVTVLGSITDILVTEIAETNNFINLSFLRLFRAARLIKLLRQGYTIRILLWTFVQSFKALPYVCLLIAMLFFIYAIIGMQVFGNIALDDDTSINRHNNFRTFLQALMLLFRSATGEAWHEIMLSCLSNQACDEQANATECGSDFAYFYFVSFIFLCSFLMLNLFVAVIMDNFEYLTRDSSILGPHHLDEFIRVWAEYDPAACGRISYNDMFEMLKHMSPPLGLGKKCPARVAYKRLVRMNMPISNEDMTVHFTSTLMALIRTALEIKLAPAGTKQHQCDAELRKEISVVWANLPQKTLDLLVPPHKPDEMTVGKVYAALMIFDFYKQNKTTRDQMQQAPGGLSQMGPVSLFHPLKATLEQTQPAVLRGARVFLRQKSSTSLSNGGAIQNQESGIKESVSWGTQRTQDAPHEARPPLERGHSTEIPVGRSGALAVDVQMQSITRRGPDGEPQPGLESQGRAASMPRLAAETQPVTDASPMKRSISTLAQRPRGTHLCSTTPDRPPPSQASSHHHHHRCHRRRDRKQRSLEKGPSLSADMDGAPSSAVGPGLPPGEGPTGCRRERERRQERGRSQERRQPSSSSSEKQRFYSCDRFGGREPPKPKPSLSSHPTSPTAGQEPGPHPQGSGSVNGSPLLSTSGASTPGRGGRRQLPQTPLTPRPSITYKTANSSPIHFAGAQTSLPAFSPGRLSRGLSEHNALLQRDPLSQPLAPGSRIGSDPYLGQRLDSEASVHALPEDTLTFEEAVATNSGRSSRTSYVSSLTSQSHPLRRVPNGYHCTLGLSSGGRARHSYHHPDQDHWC
- Sequence (P54289 25-956 partner limits assumed): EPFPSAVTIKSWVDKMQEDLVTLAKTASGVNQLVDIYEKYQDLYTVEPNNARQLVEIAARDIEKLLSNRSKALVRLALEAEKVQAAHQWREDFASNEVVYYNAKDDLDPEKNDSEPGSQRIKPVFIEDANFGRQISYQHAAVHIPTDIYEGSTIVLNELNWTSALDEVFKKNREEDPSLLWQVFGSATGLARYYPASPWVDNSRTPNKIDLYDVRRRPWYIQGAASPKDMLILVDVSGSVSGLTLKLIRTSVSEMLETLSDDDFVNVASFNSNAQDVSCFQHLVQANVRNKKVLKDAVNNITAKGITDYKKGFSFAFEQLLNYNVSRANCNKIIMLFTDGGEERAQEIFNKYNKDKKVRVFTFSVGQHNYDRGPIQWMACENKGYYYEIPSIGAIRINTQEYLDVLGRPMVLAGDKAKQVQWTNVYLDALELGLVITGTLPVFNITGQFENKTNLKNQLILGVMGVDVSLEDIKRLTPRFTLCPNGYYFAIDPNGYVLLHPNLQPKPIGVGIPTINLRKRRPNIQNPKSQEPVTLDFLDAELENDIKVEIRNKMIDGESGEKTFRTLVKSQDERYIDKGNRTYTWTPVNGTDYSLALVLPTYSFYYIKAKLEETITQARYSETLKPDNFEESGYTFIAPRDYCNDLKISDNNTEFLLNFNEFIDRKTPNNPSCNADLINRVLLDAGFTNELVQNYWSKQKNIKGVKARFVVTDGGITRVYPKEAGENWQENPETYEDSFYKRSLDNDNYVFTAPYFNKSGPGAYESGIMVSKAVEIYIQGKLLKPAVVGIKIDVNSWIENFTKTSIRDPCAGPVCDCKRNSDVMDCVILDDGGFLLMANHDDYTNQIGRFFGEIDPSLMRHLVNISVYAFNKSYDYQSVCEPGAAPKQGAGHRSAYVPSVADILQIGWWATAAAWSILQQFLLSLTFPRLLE
- Sequence (P54289 957-1103 partner limits assumed): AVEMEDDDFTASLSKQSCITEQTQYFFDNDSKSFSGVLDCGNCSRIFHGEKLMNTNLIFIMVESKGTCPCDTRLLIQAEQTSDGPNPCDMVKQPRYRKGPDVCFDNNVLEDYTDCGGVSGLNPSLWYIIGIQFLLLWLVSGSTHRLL
- Sequence (P54284 whole entry partner): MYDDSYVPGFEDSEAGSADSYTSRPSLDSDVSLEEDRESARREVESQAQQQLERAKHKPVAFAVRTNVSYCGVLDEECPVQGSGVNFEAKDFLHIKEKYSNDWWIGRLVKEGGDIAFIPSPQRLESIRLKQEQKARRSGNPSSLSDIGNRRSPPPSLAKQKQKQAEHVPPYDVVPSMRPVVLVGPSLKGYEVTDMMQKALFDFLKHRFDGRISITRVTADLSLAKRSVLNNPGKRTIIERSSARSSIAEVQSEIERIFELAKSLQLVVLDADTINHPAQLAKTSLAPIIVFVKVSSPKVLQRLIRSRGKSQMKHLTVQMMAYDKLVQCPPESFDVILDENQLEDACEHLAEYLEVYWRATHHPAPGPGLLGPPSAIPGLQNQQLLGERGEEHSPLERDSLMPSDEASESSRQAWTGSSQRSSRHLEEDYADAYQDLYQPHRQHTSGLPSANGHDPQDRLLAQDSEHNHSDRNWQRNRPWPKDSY
- experiment_notes: Inhibition of N-type calcium flux in IMR-32 cells (Indo-1 fluorescence, nitrendipine present)
- Type: cell-based
- test_settings: IMR-32
- Procedure: Measurement of N-type Ca^2+ Channel Blocking Potencies of Compounds in IMR-32 Cells Using the Fluorescent Ca^2+ Indicator Indo-1 IMR-32 cells are a human tumoral cell line of neural origin. […] Calcium flux into these cells may be induced by stimulation with elevated potassium concentrations. The L-channel component of calcium flux may be blocked by adding 5 μM nitrendipine. […] Intracellular calcium concentrations are measured using the fluorescent calcium indicator Indo 1. […]
Some compounds, each annotated with its measured inhibition at 10 µM.
parameter: inhibition at 10 µM (%)

# input_smiles, parameter, result_value
measured = [
    ("CC(C)(C)OC(=O)[C@H](Cc1ccc(OCc2ccccc2)cc1)NC(=O)[C@H](Cc1ccccc1)NC(=O)N1CCCCCC1", "inhibition at 10 µM", 92),
    ("CC(C)(C)OC(=O)[C@H](Cc1ccc(OCc2ccccc2)cc1)NC(=O)[C@H](Cc1c[nH]c2ccccc12)NC(=O)N1CCCCCC1", "inhibition at 10 µM", 90),
    ("CC(C)C[C@@H](NC(=O)N1CCCCCC1)C(=O)N[C@@H](Cc1ccc(OCc2ccccc2)cc1)C(=O)OC(C)(C)C", "inhibition at 10 µM", 90),
    ("CC(C)C[C@H](NC(=O)N1CCCCCC1)C(=O)N[C@@H](Cc1ccc(Cc2ccccc2)cc1)C(=O)NC(C)(C)C", "inhibition at 10 µM", 89),
]
